Assayed target: human wild type-CFTR (Homo sapiens, UniProt P13569)
Sequence (P13569 whole entry): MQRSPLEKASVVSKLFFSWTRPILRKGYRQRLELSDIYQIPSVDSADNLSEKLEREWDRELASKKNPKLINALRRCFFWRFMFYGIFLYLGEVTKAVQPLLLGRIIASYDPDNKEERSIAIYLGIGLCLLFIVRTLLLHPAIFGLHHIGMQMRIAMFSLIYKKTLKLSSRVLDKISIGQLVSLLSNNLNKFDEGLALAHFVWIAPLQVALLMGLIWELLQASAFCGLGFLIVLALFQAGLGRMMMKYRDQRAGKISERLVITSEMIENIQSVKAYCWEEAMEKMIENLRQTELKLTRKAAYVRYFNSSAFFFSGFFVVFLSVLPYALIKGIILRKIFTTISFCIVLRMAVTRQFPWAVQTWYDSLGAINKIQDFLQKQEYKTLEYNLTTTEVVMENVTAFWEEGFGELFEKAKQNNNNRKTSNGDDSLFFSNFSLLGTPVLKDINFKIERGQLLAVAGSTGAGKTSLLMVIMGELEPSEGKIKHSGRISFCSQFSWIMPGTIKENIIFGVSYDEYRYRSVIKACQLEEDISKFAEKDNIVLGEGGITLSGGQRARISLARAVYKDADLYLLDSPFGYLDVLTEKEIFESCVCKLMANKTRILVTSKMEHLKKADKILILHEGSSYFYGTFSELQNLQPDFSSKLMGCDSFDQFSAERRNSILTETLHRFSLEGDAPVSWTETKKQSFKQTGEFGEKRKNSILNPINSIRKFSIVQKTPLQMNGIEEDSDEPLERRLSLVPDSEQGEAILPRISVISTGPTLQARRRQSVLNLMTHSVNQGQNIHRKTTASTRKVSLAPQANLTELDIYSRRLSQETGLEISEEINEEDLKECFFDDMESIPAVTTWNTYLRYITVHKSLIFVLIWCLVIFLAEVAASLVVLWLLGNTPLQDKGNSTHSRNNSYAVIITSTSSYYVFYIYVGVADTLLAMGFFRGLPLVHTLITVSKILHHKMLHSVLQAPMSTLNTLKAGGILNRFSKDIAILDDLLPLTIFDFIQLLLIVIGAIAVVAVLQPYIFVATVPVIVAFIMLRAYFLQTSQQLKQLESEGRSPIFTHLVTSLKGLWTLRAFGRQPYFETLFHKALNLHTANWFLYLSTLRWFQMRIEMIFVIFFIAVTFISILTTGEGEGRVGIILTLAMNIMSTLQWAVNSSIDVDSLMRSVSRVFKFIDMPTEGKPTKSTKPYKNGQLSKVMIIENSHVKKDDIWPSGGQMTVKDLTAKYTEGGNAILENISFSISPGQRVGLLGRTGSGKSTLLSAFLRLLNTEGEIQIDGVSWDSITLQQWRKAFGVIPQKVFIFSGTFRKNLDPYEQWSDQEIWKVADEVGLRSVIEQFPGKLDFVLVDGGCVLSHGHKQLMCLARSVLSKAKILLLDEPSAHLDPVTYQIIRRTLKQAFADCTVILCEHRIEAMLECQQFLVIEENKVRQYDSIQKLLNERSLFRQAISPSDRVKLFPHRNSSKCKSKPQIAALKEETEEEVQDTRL
Assay details: Cell-based YFP assay
Set-up: expressed in transfected cells; host or cells: CHO-K1 (Chinese hamster ovary)
Conditions: CHO-K1 cells expressing human wild type-CFTR and YFP-H148Q/I152L; forskolin 20 μM = 100% activity; read-out: Cell-based YFP Assay (EC50) Concentration Range
EC50 by entry:

| Structure notation | EC50 |
| --- | --- |
| COc1ccc(-c2ccnc3cc(C(=O)N(C)c4ccc(C(=O)N5CCOCC5)cc4)nn23)cc1OC | ≥ 2000 nM |
| COc1ccc(-c2ccnc3cc(C(=O)Nc4ccc(C(=O)N5CCN(C)CC5)cn4)nn23)cc1OC | < 200 nM |
| COc1ccc(-c2ccnc3cc(C(=O)Nc4ccc5c(ccn5C)c4)nn23)cc1OC | < 200 nM |
| COc1ccc(-c2ccnc3cc(C(=O)N[C@H]4CC[C@H](C(=O)NCCN5CCOCC5)CC4)nn23)cc1OC | ≥ 2000 nM |
| CCOc1ccc(NC(=O)c2cc3nccc(-c4ccccc4)n3n2)cc1 | ≥ 2000 nM |
| COc1ccc(-c2ccnc3cc(C(=O)NC45CCC(C(=O)N6CCOCC6)(CC4)CC5)nn23)cc1OC | < 200 nM |
| COc1ccc(-c2ccnc3cc(C(=O)Nc4ccc(C(=O)NCCN(C)C)cc4)nn23)cc1OC | ≥ 2000 nM |
| COC(=O)C12CCC(NC(=O)c3cc4nccc(-c5ccc(OC)c(OC)c5)n4n3)(CC1)CC2 | < 200 nM |
| COc1ccc(-c2ccnc3cc(C(=O)N4CCN(C(=O)c5ccccc5OC)[C@@H](C)C4)nn23)cc1OC | 200 to 2000 nM |

Lab note: next molecule to report on.
[ask] What EC50 value was documented for this molecule, COc1ccc(-c2ccnc3cc(C(=O)N4C[C@@H](C)N(C(=O)c5ccccc5)[C@@H](C)C4)nn23)cc1OC ?
[reply] < 200 nM
